Hey, just so you know, these numbers are from paper PMC4102551.

Test system: S. aureus ATCC 25923
Assay: Broth microdilution assay, S. aureus
Format: cell-based, Staphylococcus aureus
Settings: Staphylococcus aureus, ATCC25923, 24 h, 50 µM, 24 h, inhibition of growth, mean ± SD; read-out: Inhibitory effect (%) S. aureus ATCC 25923
measuredParameter: inhibition at 50 µM (%)
Express your answer in %, writing the number without its unit.

compound | inhibition at 50 µM / %
C=C(C)[C@@H]1CC[C@]2(COC(=O)COc3cc(C(C)C)ccc3C)CC[C@]3(C)[C@H](CC[C@@H]4[C@@]5(C)CC[C@H](O)C(C)(C)[C@@H]5CC[C@]43C)[C@@H]12 [Compound 4, betulinyl 28-carboxymethoxycarvacrolate] | -17.2
C=C(C)C1CCC2(C=NO)CCC3(C)C(CCC4C5(C)CCC(O)C(C)(C)C5CCC43C)C12 (centres unmarked) | 6.4
C=C(C)[C@@H]1CC[C@]2(C=O)CC[C@]3(C)C(CCC4[C@@]5(C)CC[C@H](O)C(C)(C)C5CC[C@]43C)C12 (some centres unmarked) | -35.5
CC(=O)OCC12CCC3(C(C)C)C1=C1C(CC4C5(C)CCC(OC(C)=O)C(C)(C)C5CCC4(C)C1(C)CC2)n1c(=O)n(-c2ccc4c(c2)OCO4)c(=O)n13 (centres unmarked) | 5.9

Let us move to another entry and its inhibition at 50 µM.
[Q] Look up inhibition at 50 µM for this compound: CC(=O)OCC12CCC3(C(C)C)C1=C1C(CC4C5(C)CCC(OC(C)=O)C(C)(C)C5CCC4(C)C1(C)CC2)n1c(=O)n(-c2cccc([N+](=O)[O-])c2)c(=O)n13 (centres unmarked)
[A] 6.7
